- TESTED_ON: hCav 3.2 (Homo sapiens, UniProt O95180)
- Sequence (O95180 whole entry): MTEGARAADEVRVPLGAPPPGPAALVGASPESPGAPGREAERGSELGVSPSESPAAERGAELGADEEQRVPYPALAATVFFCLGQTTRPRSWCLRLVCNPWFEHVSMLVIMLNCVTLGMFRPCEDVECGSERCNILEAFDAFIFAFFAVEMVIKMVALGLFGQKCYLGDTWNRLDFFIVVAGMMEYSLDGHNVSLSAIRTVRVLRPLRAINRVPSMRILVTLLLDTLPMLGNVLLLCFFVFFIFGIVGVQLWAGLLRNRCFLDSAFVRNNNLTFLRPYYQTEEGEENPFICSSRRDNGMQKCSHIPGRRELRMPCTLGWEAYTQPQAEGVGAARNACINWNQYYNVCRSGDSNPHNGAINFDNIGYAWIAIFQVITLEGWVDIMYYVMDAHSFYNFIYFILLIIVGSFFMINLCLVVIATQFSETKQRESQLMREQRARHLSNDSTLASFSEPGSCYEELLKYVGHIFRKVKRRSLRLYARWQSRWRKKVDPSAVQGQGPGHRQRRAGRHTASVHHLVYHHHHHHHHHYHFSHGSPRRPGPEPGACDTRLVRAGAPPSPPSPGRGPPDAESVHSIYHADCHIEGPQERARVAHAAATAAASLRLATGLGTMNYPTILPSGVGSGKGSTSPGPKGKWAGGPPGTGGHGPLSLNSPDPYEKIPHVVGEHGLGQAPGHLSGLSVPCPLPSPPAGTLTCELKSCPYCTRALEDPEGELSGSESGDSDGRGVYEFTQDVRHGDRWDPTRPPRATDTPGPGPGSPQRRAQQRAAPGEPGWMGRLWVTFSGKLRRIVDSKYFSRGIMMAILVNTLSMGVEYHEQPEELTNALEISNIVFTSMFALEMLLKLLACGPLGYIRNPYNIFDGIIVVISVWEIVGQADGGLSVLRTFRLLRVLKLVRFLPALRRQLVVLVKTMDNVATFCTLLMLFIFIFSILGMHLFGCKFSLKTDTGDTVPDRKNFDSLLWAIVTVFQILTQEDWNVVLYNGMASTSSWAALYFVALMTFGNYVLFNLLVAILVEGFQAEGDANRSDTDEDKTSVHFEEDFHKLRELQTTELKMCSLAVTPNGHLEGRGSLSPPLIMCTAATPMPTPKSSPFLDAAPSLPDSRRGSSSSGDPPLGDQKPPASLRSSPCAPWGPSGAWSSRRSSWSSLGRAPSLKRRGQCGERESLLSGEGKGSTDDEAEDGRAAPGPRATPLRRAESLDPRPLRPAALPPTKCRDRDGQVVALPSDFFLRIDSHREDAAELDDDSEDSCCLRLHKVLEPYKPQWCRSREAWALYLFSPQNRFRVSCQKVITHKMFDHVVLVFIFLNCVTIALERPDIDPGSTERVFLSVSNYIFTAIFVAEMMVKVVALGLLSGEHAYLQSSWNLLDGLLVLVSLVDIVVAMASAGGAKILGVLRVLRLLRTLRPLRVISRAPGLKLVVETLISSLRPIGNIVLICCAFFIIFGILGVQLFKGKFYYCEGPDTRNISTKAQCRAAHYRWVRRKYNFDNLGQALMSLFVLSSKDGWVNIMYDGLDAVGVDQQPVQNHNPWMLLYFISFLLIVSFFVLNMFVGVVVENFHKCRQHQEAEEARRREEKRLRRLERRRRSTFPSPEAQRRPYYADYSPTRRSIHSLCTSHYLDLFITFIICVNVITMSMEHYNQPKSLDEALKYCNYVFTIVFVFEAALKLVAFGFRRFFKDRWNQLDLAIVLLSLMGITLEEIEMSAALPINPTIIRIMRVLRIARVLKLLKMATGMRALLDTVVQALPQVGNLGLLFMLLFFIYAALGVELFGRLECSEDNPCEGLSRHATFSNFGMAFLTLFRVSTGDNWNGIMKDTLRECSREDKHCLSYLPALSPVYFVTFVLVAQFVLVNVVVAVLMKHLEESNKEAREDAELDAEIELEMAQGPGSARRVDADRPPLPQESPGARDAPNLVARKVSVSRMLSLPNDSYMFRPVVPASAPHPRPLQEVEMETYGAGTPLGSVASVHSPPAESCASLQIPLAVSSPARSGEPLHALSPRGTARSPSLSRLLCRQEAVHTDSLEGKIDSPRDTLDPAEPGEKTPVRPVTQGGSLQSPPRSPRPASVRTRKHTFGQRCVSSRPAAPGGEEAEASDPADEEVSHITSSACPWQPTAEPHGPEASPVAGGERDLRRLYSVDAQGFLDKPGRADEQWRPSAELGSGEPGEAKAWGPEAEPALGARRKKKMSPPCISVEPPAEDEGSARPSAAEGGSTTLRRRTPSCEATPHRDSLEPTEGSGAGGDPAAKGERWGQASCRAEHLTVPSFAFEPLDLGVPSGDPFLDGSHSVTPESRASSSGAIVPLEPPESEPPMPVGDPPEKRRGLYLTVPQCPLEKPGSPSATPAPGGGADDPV
- PROCEDURE_TEXT: whole-cell patch clamp
- CONDITION_CONTEXT: tonic block, step -100 to -30 mV, 5 mM Ba2+, pH 7.4, room temperature
For each entry below, report its IC50 value.
Use µM as the unit, but write only the number.

Please look up its IC50: COC(=O)C(NC(=O)c1nn(CC2CCCCC2)c2ccccc12)C(C)C (centres unmarked)
0.74

Which IC50 value belongs to COC(=O)C(NC(=O)c1cn(CC2CCCCC2)c2ccccc12)C(C)(C)C (centres unmarked) ?
1.5
